Organism: Rattus norvegicus
experimental protocol: DrugMatrix - Regimen: Daily Repeat
Format: toxicity, organism-based, Sprague-Dawley
Design: regimen Daily Repeat, gender Male, age 6-8 weeks
measurement conditions: in vivo, po, 0 mg/kg, 120 h, tissue Plasma, route oral GAVAGE, dose level Control, time 5 day, […]
Label scheme for PHOSPHORUS: lower than 10 mg/dL is not fulfilled, 10 mg/dL and above is fulfilled.

These recorded examples may help you get a feel for the data.
molecule | label class
CS(=O)(=O)Nc1ccc([N+](=O)[O-])cc1Oc1ccccc1 [NIMESULIDE] | fulfilled
CCCCC(=O)N(Cc1ccc(-c2ccccc2-c2nnn[nH]2)cc1)[C@H](C(=O)O)C(C)C | fulfilled
CC(=O)Oc1ccccc1C(=O)O | not fulfilled

Switching to the query record.
Given the entry `c1ccoc1` , answer whether its PHOSPHORUS meets or surpasses 10 mg/dL. fulfilled

* * *

Organism: Rattus norvegicus
Format: toxicity, organism-based, Sprague-Dawley
measurement conditions: in vivo, po, 100 mg/kg, 24 h, tissue Blood, route oral GAVAGE, dose level High, time 1 day, vehicle .5 % CMC
Description: DrugMatrix - Regimen: Single
assay metric: ABSOLUTE BASOPHIL (cells/µL)
Give the value in cells/µL but do not write cells/µL after it.

Requested field: ABSOLUTE BASOPHIL. Item: `CN(C)CCN(Cc1cccs1)c1ccccn1` 130

* * *

Listed here: items and their measured SODIUM.
Species on record: Rattus norvegicus
experimental protocol: DrugMatrix - Regimen: Daily Repeat
Assay type: toxicity, organism-based, Sprague-Dawley
Design: regimen Daily Repeat, gender Male, age 6-8 weeks
measurement conditions: in vivo, po, 0 mg/kg, 120 h, tissue Plasma, route oral GAVAGE, dose level Control, time 5 day, […]
Write down the numeric answer in MEQ/L and omit the unit.

Fill blank: measured SODIUM of the molecule `O=c1c(-c2ccc(O)cc2)coc2cc(O)cc(O)c12` is ____. 141.62

For the molecule `c1ccoc1` , what SODIUM is on record? 148.67

Item under review: CS(=O)(=O)Nc1ccc([N+](=O)[O-])cc1Oc1ccccc1 [NIMESULIDE] . Reported SODIUM? 143.17

* * *

Readings of POTASSIUM for the listed molecules
Species on record: Rattus norvegicus
experimental protocol: DrugMatrix - Regimen: Daily Repeat
Type: toxicity, organism-based, Sprague-Dawley
Design: regimen Daily Repeat, gender Male, age 6-8 weeks
measurement conditions: in vivo, po, 0 mg/kg, 120 h, tissue Plasma, route oral GAVAGE, dose level Control, time 5 day, vehicle 100 % WATER
Record the value in MEQ/L, omitting the unit from your answer.

molecule | assay metric | observed measurement
CN(C)CCC=C1c2ccccc2CCc2ccccc21 [AMITRIPTYLINE] | POTASSIUM | 6.73
CCCC(C)C1(CC)C(=O)NC(=O)NC1=O (stereo unspecified) [PENTOBARBITAL] | POTASSIUM | 6
CN(C)C(=O)Oc1cccc([N+](C)(C)C)c1.[Br-] [NEOSTIGMINE BROMIDE] | POTASSIUM | 6
CCN(C(C)=O)c1cccc(-c2ccnc3c(C#N)cnn23)c1 [ZALEPLON] | POTASSIUM | 6.73
CCN(CC)CCOC(=O)C1(C2CCCCC2)CCCCC1 [DICYCLOMINE] | POTASSIUM | 7.05

// lookup POTASSIUM for NC12CC3CC(CC(C3)C1)C2 [AMANTADINE] 6.73

Param item = CNC1=Nc2ccc(Cl)cc2C(c2ccccc2)=[N+]([O-])C1 [CHLORDIAZEPOXIDE] ; retrieve measured POTASSIUM. 6.86

Entry O=c1[nH]c(=O)n(C2CCCO2)cc1F (stereo unspecified) [TEGAFUR] : reported POTASSIUM = ? 6.4

Give its POTASSIUM value. Item: C#Cc1cccc(Nc2ncnc3cc(OCCOC)c(OCCOC)cc23)c1 [ERLOTINIB] 6.03

Need POTASSIUM, item CCN(CC)CCNC(=O)c1ccc(N)cc1 [PROCAINAMIDE] 6.85

I would be grateful if you could share the reported POTASSIUM for NC(=O)c1cccnc1 [NIACINAMIDE] . 6.76

* * *

BLOOD UREA NITROGEN by entry:
Organism: Rattus norvegicus
experimental protocol: DrugMatrix - Regimen: Daily Repeat
Type: toxicity, organism-based, Sprague-Dawley
Set-up: regimen Daily Repeat, gender Male, age 6-8 weeks
measurement conditions: in vivo, po, 0 mg/kg, 72 h, tissue Plasma, route oral GAVAGE, dose level Control, time 3 day, vehicle .5 % CMC
Report the value in mg/dL with no unit label.

Please look up its BLOOD UREA NITROGEN: `COc1ccc2c(c1OC)C(=O)O[C@@H]2[C@H]1c2c(cc3c(c2OC)OCO3)CCN1C` 16.17

State the recorded BLOOD UREA NITROGEN for this entry: NC(=O)N1c2ccccc2CC(=O)c2ccccc21 [OXCARBAZEPINE] 15

Please report the recorded BLOOD UREA NITROGEN for CCn1cc(C(=O)O)c(=O)c2cc(F)c(N3CCNC(C)C3)c(F)c21 (centres undefined) . 14.83

What value of measured BLOOD UREA NITROGEN is listed for `CN1CCN(C2=Nc3cc(Cl)ccc3Nc3ccccc32)CC1` ? 18.83

Using the record for `COc1ccccc1[N+](=O)[O-]` , report its BLOOD UREA NITROGEN. 18

So what does the record say about BLOOD UREA NITROGEN for `C#C[C@]1(O)CC[C@H]2[C@@H]3CCC4=CC(=O)CC[C@]4(C)[C@H]3CC[C@@]21C` ? 16.17

I am curious: what BLOOD UREA NITROGEN value has been reported for `C[C@@](Cc1ccc(O)c(O)c1)(NN)C(=O)O.O` ? 17.67

Which BLOOD UREA NITROGEN is listed for `CCCCC1=NC2(CCCC2)C(=O)N1Cc1ccc(-c2ccccc2-c2nnn[nH]2)cc1` ? 17

Look up BLOOD UREA NITROGEN for this molecule: `CCOc1nc2cccc(C(=O)O)c2n1Cc1ccc(-c2ccccc2-c2nnn[nH]2)cc1` 13.67

* * *

Species: Rattus norvegicus
experimental protocol: DrugMatrix - Regimen: Daily Repeat
Type: toxicity, organism-based, Sprague-Dawley
Parameters: regimen Daily Repeat, gender Male, age 6-8 weeks
measurement conditions: in vivo, po, 0 mg/kg, 72 h, tissue Plasma, route oral GAVAGE, dose level Control, time 3 day, vehicle .5 % CMC
assay metric: TOTAL BILIRUBIN (mg/dL)
Number only, in mg/dL; omit the unit.

compound | observed measurement
CN1CCN(C2=Nc3cc(Cl)ccc3Nc3ccccc32)CC1 [CLOZAPINE] | 0.4

Can you share its TOTAL BILIRUBIN? I mean this compound: C[C@@](Cc1ccc(O)c(O)c1)(NN)C(=O)O.O [CARBIDOPA] 0.15

Field request: TOTAL BILIRUBIN | item: `CCOc1nc2cccc(C(=O)O)c2n1Cc1ccc(-c2ccccc2-c2nnn[nH]2)cc1` 0.23

Please look up its TOTAL BILIRUBIN: NC(=O)N1c2ccccc2CC(=O)c2ccccc21 [OXCARBAZEPINE] 0.18

* * *

Species on record: Rattus norvegicus
experimental protocol: DrugMatrix - Regimen: Daily Repeat
Assay type: toxicity, organism-based, Sprague-Dawley
Design: regimen Daily Repeat, gender Male, age 6-8 weeks
measurement conditions: in vivo, po, 0 mg/kg, 72 h, tissue Plasma, route oral GAVAGE, dose level Control, time 3 day, vehicle .5 % CMC
Outcome: satisfied for ASPARTATE AMINOTRANSFERASE of at least 100 u/L; not satisfied for anything lower.

molecule | label class
C[C@@H]1O[C@@H](O[C@H]2C[C@@H](O)[C@]3(CO)[C@H]4[C@H](O)C[C@]5(C)[C@@H](C6=CC(=O)OC6)CC[C@]5(O)[C@@H]4CC[C@]3(O)C2)[C@H](O)[C@H](O)[C@H]1O [OUABAIN] | not satisfied
C[C@]12CC[C@@H]3c4ccc(O)cc4CC[C@H]3[C@@H]1C[C@@H](O)[C@@H]2O [ESTRIOL] | satisfied
CN1CCN(C2=Nc3cc(Cl)ccc3Nc3ccccc32)CC1 [CLOZAPINE] | not satisfied
CCC1=C(C)CN(C(=O)NCCc2ccc(S(=O)(=O)NC(=O)N[C@H]3CC[C@H](C)CC3)cc2)C1=O [GLIMEPIRIDE] | satisfied
C#C[C@]1(O)CC[C@H]2[C@@H]3CCC4=CC(=O)CC[C@]4(C)[C@H]3CC[C@@]21C [ETHISTERONE] | not satisfied
C[C@@](Cc1ccc(O)c(O)c1)(NN)C(=O)O.O [CARBIDOPA] | not satisfied

Now examine the next entry.
Reported ASPARTATE AMINOTRANSFERASE at or above 100 u/L? CN(C)C(=O)C(CCN1CCC(O)(c2ccc(Cl)cc2)CC1)(c1ccccc1)c1ccccc1 [LOPERAMIDE] satisfied

* * *

Here, each record is paired with measured LEUKOCYTE COUNT data.
Species on record: Rattus norvegicus
experimental protocol: DrugMatrix - Regimen: Daily Repeat
Type: toxicity, organism-based, Sprague-Dawley
Set-up: regimen Daily Repeat, gender Male, age 6-8 weeks
measurement conditions: in vivo, po, 0 mg/kg, 72 h, tissue Blood, route oral GAVAGE, dose level Control, time 3 day, vehicle 100 % WATER
Please state the figure in x10E3/uL; there is no need to write the unit.

// known answers, use as guide
molecule | units | LEUKOCYTE COUNT
NC(=O)c1cccnc1 [NIACINAMIDE] | x10E3/uL | 11.83
CN(C)C(=O)Oc1cccc([N+](C)(C)C)c1.[Br-] [NEOSTIGMINE BROMIDE] | x10E3/uL | 10.2
CCCC(C)C1(CC)C(=O)NC(=O)NC1=O (stereo unspecified) [PENTOBARBITAL] | x10E3/uL | 10.2

Tell me the measured LEUKOCYTE COUNT of CNC1=Nc2ccc(Cl)cc2C(c2ccccc2)=[N+]([O-])C1 [CHLORDIAZEPOXIDE] , please. 14.9

Please report the recorded LEUKOCYTE COUNT for CCN(CC)CCOC(=O)C1(C2CCCCC2)CCCCC1 [DICYCLOMINE] . 13.7

# lookup: LEUKOCYTE COUNT of CCN(CC)CCNC(=O)c1ccc(N)cc1 [PROCAINAMIDE] 9.28

Give its LEUKOCYTE COUNT value. Item: O=c1[nH]c(=O)n(C2CCCO2)cc1F (stereo unspecified) [TEGAFUR] 15.17
